system: giant foxtail; test: Test A preemergence; format: in vivo, Setaria faberii; details: 1000 g ai/ha, 0 to 100 scale, 0 no effect, 100 complete control, approx. 10 days
Attribute Measured: Foxtail, Giant plant response rating

Below: 4 compounds and their reported Foxtail, Giant plant response rating.
Fill blank: measured Foxtail, Giant plant response rating of the compound FCc1cn(-c2ccccc2Oc2ncc(Cl)cn2)nn1 [Compound 123] is ____. 100

Fill blank: measured Foxtail, Giant plant response rating of the compound CCNC(=O)c1cccc(Oc2ncc(Cl)cn2)c1-n1cc(C(F)(F)F)cn1 [Compound 257] is ____. 70

Fill blank: measured Foxtail, Giant plant response rating of the compound O=Cc1cn(-c2c(F)cccc2Oc2ncc(Cl)cn2)nn1 [Compound 139] is ____. 0

Fill blank: measured Foxtail, Giant plant response rating of the compound Fc1cccc(Oc2ncc(Cl)cn2)c1-n1cc(-c2cccc(C(F)(F)F)c2)nn1 [Compound 276] is ____. 0

***
Fill blank: measured Foxtail, Giant plant response rating of the compound Clc1cnc(Oc2cccc(I)c2-n2cc(Br)cn2)nc1 [Compound 66] is ____. 100

###

system: rice; test: Test B flooded paddy test; type: in vivo, Oryza sativa; settings: Flood, 250 g ai/ha; 0 to 100 scale where 0 is no effect and 100 is complete control
Attribute Measured: Plant response rating, Rice
Answer as a number with no unit attached.

Fill blank: measured Plant response rating, Rice of the compound "C=C(C)c1cn(-c2c(Br)cccc2Oc2ncc(Cl)cn2)nn1" is ____. 0

With those in mind, consider the next compound.
Fill blank: measured Plant response rating, Rice of the compound "C[Si](C)(C)C#Cc1cccc(Oc2ncc(Cl)cn2)c1-n1cc(Br)cn1" is ____. 0

###

system: kochia; test: Test A preemergence; format: in vivo, Kochia scoparia; conditions: 1000 g ai/ha, 0 to 100 scale, 0 no effect, 100 complete control, approx. 10 days
Reported Kochia plant response rating by item:
Answer as a number with no unit attached.

Fill blank: measured Kochia plant response rating of the compound "Clc1cnc(Oc2ccccc2-n2cc(C3CC3)nn2)nc1" is ____. 100

Fill blank: measured Kochia plant response rating of the compound "Fc1cccc(Oc2ncc(Cl)cn2)c1-n1cc(C2CCCCC2)nn1" is ____. 0

Fill blank: measured Kochia plant response rating of the compound "CCNC(=O)c1cccc(Oc2ncc(Cl)cn2)c1-n1cc(C(F)(F)F)cn1" is ____. 70

With those in mind, consider the next compound.
Fill blank: measured Kochia plant response rating of the compound "CCN(CC)C(=O)c1cccc(Oc2ncc(Cl)cn2)c1-n1cc(C(F)(F)F)cn1" is ____. 20

###

tested on: morningglory; assay: Test A preemergence; assay type: in vivo, Ipomoea spp.; conditions: 125 g ai/ha
Cut-off 10 on Morningglory plant response rating (0 to 100 scale): below means criterion met, at or above means criterion not met.

As a guide, the following entries are already answered.
For "Cc1cnc(Oc2cccc(C#N)c2-n2cc(C(F)(F)F)cn2)nc1" , is the recorded Morningglory plant response rating (0 to 100 scale) below the cut-off of 10? criterion not met

For "N#Cc1cccc(Oc2ncc(Cl)cn2)c1-n1cccn1" , is the recorded Morningglory plant response rating (0 to 100 scale) below the cut-off of 10? criterion met

For "COC(=O)c1cccc(Oc2ncc(Cl)cn2)c1-n1cc(Br)cn1" , is the recorded Morningglory plant response rating (0 to 100 scale) below the cut-off of 10? criterion not met

For "CC1(C)OB(c2cnn(-c3c(C#N)cccc3Oc3ncc(Cl)cn3)c2)OC1(C)C" , is the recorded Morningglory plant response rating (0 to 100 scale) below the cut-off of 10? criterion met

For "FC(F)c1cnn(-c2c(Cl)cccc2Oc2ncc(Cl)cn2)c1" , is the recorded Morningglory plant response rating (0 to 100 scale) below the cut-off of 10? criterion not met

For "N#Cc1cccc(Oc2ncc(Cl)cn2)c1-n1cc(OCC(F)(F)F)cn1" , is the recorded Morningglory plant response rating (0 to 100 scale) below the cut-off of 10? criterion not met

For "FC(F)(F)c1cnn(-c2c(Br)cccc2Oc2ncc(Cl)cn2)c1" , is the recorded Morningglory plant response rating (0 to 100 scale) below the cut-off of 10? criterion not met

***
For "O=Cc1cccc(Oc2ncc(Br)cn2)c1-n1cc(Br)cn1" , is the recorded Morningglory plant response rating (0 to 100 scale) below the cut-off of 10? criterion met

###

system: blackgrass; assay: Test A postemergence; type: in vivo, Alopecurus myosuroides; conditions: 125 g ai/ha, 0 to 100 scale where 0 is no effect and 100 is complete control
Cut-off 50 on Blackgrass plant response rating: below means yes (1), at or above means no (0).

For COc1ccc(C#N)c(-n2cc(Br)cn2)c1Oc1ncc(Cl)cn1 [Compound 212] , is the recorded Blackgrass plant response rating below the cut-off of 50? yes (1)

***
For CCCOc1cnn(-c2c(F)cccc2Oc2ncc(F)cn2)c1 [Compound 153] , is the recorded Blackgrass plant response rating below the cut-off of 50? yes (1)

For FC(F)c1cn(-c2ccccc2Oc2ncc(Cl)cn2)nn1 [Compound 147] , is the recorded Blackgrass plant response rating below the cut-off of 50? no (0)

For CC(C)Oc1cnn(-c2c(C#N)cccc2Oc2ncc(Cl)cn2)c1 [Compound 149] , is the recorded Blackgrass plant response rating below the cut-off of 50? no (0)

###

tested on: lambsquarters; experiment: Test C postemergence; format: in vivo, Chenopodium album; settings: 31 g ai/ha, postemergence; visual rating, scale 0 to 100 (0 no effect, 100 complete control), 13 to 15 days
Attribute Measured: Lambsquarters plant response rating
Answer as a number with no unit attached.

Below: 7 compounds and their reported Lambsquarters plant response rating.
Fill blank: measured Lambsquarters plant response rating of the compound Clc1cnc(Oc2cccc(Br)c2-n2cc(Cl)cn2)nc1 [Compound 221] is ____. 60

Fill blank: measured Lambsquarters plant response rating of the compound FC(F)c1cccc(Oc2ncc(Br)cn2)c1-n1cc(C(F)(F)F)cn1 [Compound 163] is ____. 80

Fill blank: measured Lambsquarters plant response rating of the compound Clc1cnc(Oc2cccc(Cl)c2-n2cc(I)cn2)nc1 [Compound 181] is ____. 100

Fill blank: measured Lambsquarters plant response rating of the compound FCc1cccc(Oc2ncc(Cl)cn2)c1-n1cc(I)cn1 [Compound 245] is ____. 70

Fill blank: measured Lambsquarters plant response rating of the compound N#Cc1cnn(-c2c(Oc3ncc(F)cn3)cccc2C(F)F)c1 [Compound 240] is ____. 45

Fill blank: measured Lambsquarters plant response rating of the compound Fc1cccc(Oc2ncc(Cl)cn2)c1-n1cc(Cl)cn1 [Compound 177] is ____. 65

Fill blank: measured Lambsquarters plant response rating of the compound Clc1cnc(Oc2ccccc2-n2cc(C3CC3)nn2)nc1 [Compound 160] is ____. 65

With those in mind, consider the next compound.
Fill blank: measured Lambsquarters plant response rating of the compound FC(F)c1cnn(-c2c(Cl)cccc2Oc2ncc(Cl)cn2)c1 [Compound 192] is ____. 25

###

tested on: lambsquarters; assay: Test C postemergence; format: in vivo, Chenopodium album; conditions: 16 g ai/ha, postemergence; 0 is no effect, 100 is complete control
Attribute Measured: Plant response rating (0 to 100), Lambsquarters
Answer as a number with no unit attached.

Fill blank: measured Plant response rating (0 to 100), Lambsquarters of the compound N#Cc1cn(-c2c(C#N)cccc2Oc2ncc(Cl)cn2)nn1 [Compound 273] is ____. 25

Fill blank: measured Plant response rating (0 to 100), Lambsquarters of the compound O=Cc1cccc(Oc2ncc(I)cn2)c1-n1cc(Br)cn1 [Compound 172] is ____. 0

Fill blank: measured Plant response rating (0 to 100), Lambsquarters of the compound Clc1cnc(Oc2ccccc2-n2cc(Br)nn2)nc1 [Compound 223] is ____. 60

Fill blank: measured Plant response rating (0 to 100), Lambsquarters of the compound FC(F)c1cnn(-c2c(Br)cccc2Oc2ncc(Cl)cn2)c1 [Compound 232] is ____. 55

Fill blank: measured Plant response rating (0 to 100), Lambsquarters of the compound Clc1cnc(Oc2cccc(Cl)c2-n2cc(I)cn2)nc1 [Compound 181] is ____. 75

***
Fill blank: measured Plant response rating (0 to 100), Lambsquarters of the compound FC(F)Oc1cnn(-c2c(Cl)cccc2Oc2ncc(Cl)cn2)c1 [Compound 258] is ____. 50

###

system: ragweed; assay: Test A postemergence; assay type: in vivo, Ambrosia elatior; details: 125 g ai/ha, 0 to 100 scale, 0 no effect, 100 complete control
Reported Plant response rating, Ragweed by item:
Answer as a number with no unit attached.

Below: 3 molecules and their reported Plant response rating, Ragweed.
Query Plant response rating, Ragweed on ragweed for "FC(F)(F)c1cnn(-c2c(Oc3ncc(Cl)cn3)cccc2-c2ncon2)c1" 40

Query Plant response rating, Ragweed on ragweed for "Fc1cccc(Oc2ncc(Cl)cn2)c1-n1cc(OC(F)F)cn1" 80

Query Plant response rating, Ragweed on ragweed for "N#Cc1cccc(Oc2ncc(Cl)cn2)c1-n1cc(C(F)F)cn1" 80

***
Query Plant response rating, Ragweed on ragweed for "FC(F)Oc1cnn(-c2c(Cl)cccc2Oc2ncc(Cl)cn2)c1" 50

Query Plant response rating, Ragweed on ragweed for "Cc1cc(C(F)(F)F)nn1-c1ccccc1Oc1ncc(Cl)cn1" 0

Query Plant response rating, Ragweed on ragweed for "FCc1cccc(Oc2ncc(F)cn2)c1-n1cc(Cl)cn1" 70

Source: patent US9695155B2
